tested on: Staphylococcus sp.; assay: In vitro antibacterial evaluation: minimum inhibitory concentration (MIC), broth dilution method; type: cell-based; conditions: strain GC 4544; broth dilution, 18 hours at 35° C.
PARAMETER: MIC Staphylococcus aureus (GC 4544) (µg/mL)
Express your answer in µg/mL, writing the number without its unit.

Observe how each entry below is paired with its result.
COMPOUND	UNIT_ABBREV	MEASURED_RESULT
CC(c1ccccc1)C1NC(=O)CNC(=O)C(CO)NC(=O)C(C(O)C2CNC(=N)N2C2OC(CO)C(O)C(O)C2O)NC(=O)C(C(O)C2CNC(=N)N2)NC(=O)C(Cc2ccc(OC3OC(CO)C(OC4OC5COC(CC6CCN(C(=O)OCc7ccccc7)CC6)OC5C(O)C4O)C(O)C3O)cc2)NC1=O (stereo not shown) [Example 113]	µg/mL	2
CC(c1ccccc1)C1NC(=O)CNC(=O)C(CO)NC(=O)C(C(O)C2CNC(=N)N2C2OC(CO)C(O)C(O)C2O)NC(=O)C(C(O)C2CNC(=N)N2)NC(=O)C(Cc2ccc(OC3OC(CO)C(OC4OC5COC(c6cccc(Oc7ccccc7)c6)OC5C(O)C4O)C(O)C3O)cc2)NC1=O (stereo not shown) [Example 170]	µg/mL	2
CC(c1ccccc1)C1NC(=O)CNC(=O)C(CO)NC(=O)C(C(O)C2CNC(=N)N2C2OC(CO)C(O)C(O)C2O)NC(=O)C(C(O)C2CNC(=N)N2)NC(=O)C(Cc2ccc(OC3OC(CO)C(OC4OC5COC(c6cccc(-c7ccccc7)c6)OC5C(O)C4O)C(O)C3O)cc2)NC1=O (stereo not shown) [Example 154]	µg/mL	2

Let us examine a further case.
Q. State the recorded MIC Staphylococcus aureus (GC 4544) for this entry: CCOc1cc(C2OCC3OC(OC4C(CO)OC(Oc5ccc(CC6NC(=O)C(C(C)c7ccccc7)NC(=O)CNC(=O)C(CO)NC(=O)C(C(O)C7CNC(=N)N7C7OC(CO)C(O)C(O)C7O)NC(=O)C(C(O)C7CNC(=N)N7)NC6=O)cc5)C(O)C4O)C(O)C(O)C3O2)ccc1[N+](=O)[O-] (stereo not shown) [Example 167]
A. 16

* * *

system: Escherichia coli; experiment: In vitro antibacterial evaluation: minimum inhibitory concentration (MIC), broth dilution method; assay type: cell-based; conditions: broth dilution, 18 hours at 35° C.
Numbered stars: 1 amine (or outer) side, 2 acyl side, 3 side chain; on linkers, the order of the positions; unused ones are H or OH. Square brackets hold non-standard residues; d marks the D form. Peptide text beside a SMILES is read from it. * marks the point of attachment. ξ: configuration not given here. X1 = N=C1NCC(C(O)C(N[*:1])C(=O)[*:2])N1C1OC(CO)C(O)C(O)C1O; ξEnduracididine(βξ-OH,4'ξ) = N=C1NCC(C(O)C(N)C(=O)O)N1; X2 = OCC1OC(OC2C(CO)OC(*)C(O)C2O)C(O)C(O)C1O; ξCha(3ξ-Me) = CC(C1CCCCC1)C(N)C(=O)O
PARAMETER: MIC Escherichia coli (GC 4559) (µg/mL)
Express your answer in µg/mL, writing the number without its unit.

Observe how each entry below is paired with its result.
COMPOUND	MIC Escherichia coli (GC 4559) [µg/mL]
CC(c1ccccc1)C1NC(=O)CNC(=O)C(CO)NC(=O)C(CC2CNC(=N)N2C2OC(CO)C(O)C(O)C2O)NC(=O)C(CC2CNC(=N)N2)NC(=O)C(Cc2ccc3oc(-c4ccc5c(c4)Cc4ccccc4-5)nc3c2)NC1=O (stereo not shown) [Example 42]	32
CC(c1ccccc1)C1NC(=O)CNC(=O)C(CO)NC(=O)C(C(O)C2CNC(=N)N2C2OC(CO)C(O)C(O)C2O)NC(=O)C(C(O)C2CNC(=N)N2)NC(=O)C(Cc2ccc3oc(-c4cccc(F)c4)nc3c2)NC1=O (stereo not shown) [Example 30]	32
CC(c1ccccc1)C1NC(=O)CNC(=O)C(CO)NC(=O)C(C(O)C2CNC(=N)N2C2OC(CO)C(O)C(O)C2O)NC(=O)C(C(O)C2CNC(=N)N2)NC(=O)C(Cc2ccc(O)c(NC=O)c2)NC1=O (stereo not shown) [Example 18]	32
CC(C1CCCCC1)C1NC(=O)CNC(=O)C(CO)NC(=O)C(C(O)C2CNC(=N)N2C2OC(CO)C(O)C(O)C2O)NC(=O)C(C(O)C2CNC(=N)N2)NC(=O)C(Cc2ccc(OC3OC(CO)C(OC4OC(CO)C(O)C(O)C4O)C(O)C3O)cc2)NC1=O (stereo not drawn) [Example 51] (cyclo(G[ξCha(3ξ-Me)]Y(X2)[ξEnduracididine(βξ-OH,4'ξ)][X1]S); configuration not given here)	64
CC(c1ccccc1)C1NC(=O)CNC(=O)C(CO)NC(=O)C(C(O)C2CNC(=N)N2C2OC(CO)C(O)C(O)C2O)NC(=O)C(C(O)C2CNC(=N)N2)NC(=O)C(Cc2ccc3oc(-c4ccoc4)nc3c2)NC1=O (stereo not shown) [Example 38]	64
CC(c1ccccc1)C1NC(=O)CNC(=O)C(CO)NC(=O)C(C(O)C2CNC(=N)N2C2OC(CO)C(O)C(O)C2O)NC(=O)C(C(O)C2CNC(=N)N2)NC(=O)C(Cc2ccc3oc(SCc4ccc5ccccc5c4)nc3c2)NC1=O (stereo not shown) [Example 46]	64

Let us examine a further case.
Q. So what MIC Escherichia coli (GC 4559) did CC(c1ccccc1)C1NC(=O)CNC(=O)C(CO)NC(=O)C(C(O)C2CNC(=N)N2C2OC(CO)C(O)C(O)C2O)NC(=O)C(C(O)C2CNC(=N)N2)NC(=O)C(Cc2ccc3oc(-c4cccc([N+](=O)[O-])c4)nc3c2)NC1=O (stereo not shown) [Example 26] get with Escherichia coli?
A. 64

* * *

system: Enterococcus sp.; assay: In vitro antibacterial evaluation: minimum inhibitory concentration (MIC), broth dilution method; type: cell-based; details: Enterococcus faecium (GC 4556); 18 hours at 35° C.
Numbered stars: 1 amine (or outer) side, 2 acyl side, 3 side chain; on linkers, the order of the positions; unused ones are H or OH. Square brackets hold non-standard residues; d marks the D form. Peptide text beside a SMILES is read from it. ξ: configuration not given here. X3 = CC1(C)OCC2OC(N3C(=N)NCC3C(O)C(N[*:1])C(=O)[*:2])C3OC(C)(C)OC3C2O1; ξEnduracididine(βξ-OH,4'ξ) = N=C1NCC(C(O)C(N)C(=O)O)N1; ξPhe(βξ-Me) = CC(c1ccccc1)C(N)C(=O)O
Readings of MIC Enterococcus faecium (GC 4556) for the listed compounds

Observe how each entry below is paired with its result.
COMPOUND	MIC Enterococcus faecium (GC 4556)
CC(c1ccccc1)C1NC(=O)CNC(=O)C(CO)NC(=O)C(C(O)C2CNC(=N)N2C2OC(CO)C(O)C(O)C2O)NC(=O)C(C(O)C2CNC(=N)N2)NC(=O)C(Cc2ccc(OC3OC(CO)C(OC4OC(COCC=Cc5ccc(N(C)C)cc5)C(O)C(O)C4O)C(O)C3O)cc2)NC1=O (stereo not shown)	>64 µg/mL
CC(c1ccccc1)C1NC(=O)CNC(=O)C(CO)NC(=O)C(CC2CNC(=N)N2C2OC(CO)C(O)C(O)C2O)NC(=O)C(CC2CNC(=N)N2)NC(=O)C(Cc2ccc(OC3OC(CO)C(OC4OC5COC(c6ccc(OCc7ccccc7)cc6)OC5C(O)C4O)C(O)C3O)cc2)NC1=O (stereo not shown)	8 µg/mL
CCCCCNC(=O)OC1C(CO)OC(OC2C(CO)OC(Oc3ccc(CC4NC(=O)C(C(C)c5ccccc5)NC(=O)CNC(=O)C(CO)NC(=O)C(C(O)C5CNC(=N)N5C5OC(CO)C(O)C(O)C5O)NC(=O)C(C(O)C5CNC(=N)N5)NC4=O)cc3)C(O)C2O)C(O)C1O (stereo not shown)	>64 µg/mL

Q. State the recorded MIC Enterococcus faecium (GC 4556) for this entry: CC(c1ccccc1)C1NC(=O)CNC(=O)C(CO)NC(=O)C(C(O)C2CNC(=N)N2C2OC3COC(C)(C)OC3C3OC(C)(C)OC32)NC(=O)C(C(O)C2CNC(=N)N2)NC(=O)C(Cc2ccc(O)cc2)NC1=O (stereo not drawn) [Example 247] (cyclo(G[ξPhe(βξ-Me)]Y[ξEnduracididine(βξ-OH,4'ξ)][X3]S); configuration not given here)
A. >64 µg/mL

* * *

test system: Staphylococcus sp.; experiment: In vitro antibacterial evaluation: minimum inhibitory concentration (MIC), broth dilution method; type: cell-based; conditions: strain GC 4541
Readings of MIC Staphylococcus aureus (GC 4541) for the listed compounds
Express your answer in µg/mL, writing the number without its unit.

COMPOUND	PARAMETER	MEASURED_RESULT
CC(c1ccccc1)C1NC(=O)CNC(=O)C(CO)NC(=O)C(C(O)C2CNC(=N)N2C2OC(CO)C(O)C(O)C2O)NC(=O)C(C(O)C2CNC(=N)N2)NC(=O)C(Cc2ccc(OC3OC(CO)C(OC4OC5COC6(CCCCC6C)OC5C(O)C4O)C(O)C3O)cc2)NC1=O (stereo not shown)	MIC Staphylococcus aureus (GC 4541)	4

Q. State the recorded MIC Staphylococcus aureus (GC 4541) for this entry: N=C1NCC(C(O)C2NC(=O)C(CC3CCC(OC4OC(CO)C(OC5OC6COC7(OC6C(O)C5O)C5CC6CC(C5)CC7C6)C(O)C4O)CC3)NC(=O)C(CC3CCCCC3)NC(=O)CNC(=O)C(CO)NC(=O)C(C(O)C3CNC(=N)N3C3OC(CO)C(O)C(O)C3O)NC2=O)N1 (stereo not shown)
A. 64

Q. State the recorded MIC Staphylococcus aureus (GC 4541) for this entry: CC(c1ccccc1)C1NC(=O)CNC(=O)C(CO)NC(=O)C(C(O)C2CNC(=N)N2C2OC(CO)C(O)C(O)C2O)NC(=O)C(C(O)C2CNC(=N)N2)NC(=O)C(Cc2ccc(OC3OC(CO)C(OC4OC5COC(c6cccc(Oc7cccc(C(F)(F)F)c7)c6)OC5C(O)C4O)C(O)C3O)cc2)NC1=O (stereo not shown)
A. 32

Q. State the recorded MIC Staphylococcus aureus (GC 4541) for this entry: Cc1cccc(C2OCC3OC(OC4C(CO)OC(Oc5ccc(CC6NC(=O)C(C(C)c7ccccc7)NC(=O)CNC(=O)C(CO)NC(=O)C(C(O)C7CNC(=N)N7C7OC(CO)C(O)C(O)C7O)NC(=O)C(C(O)C7CNC(=N)N7)NC6=O)cc5)C(O)C4O)C(O)C(O)C3O2)c1 (stereo not shown)
A. 1

Q. State the recorded MIC Staphylococcus aureus (GC 4541) for this entry: CCCCCC1OCC2OC(OC3C(CO)OC(Oc4ccc(CC5NC(=O)C(C(C)c6ccccc6)NC(=O)CNC(=O)C(CO)NC(=O)C(C(O)C6CNC(=N)N6C6OC(CO)C(O)C(O)C6O)NC(=O)C(C(O)C6CNC(=N)N6)NC5=O)cc4)C(O)C3O)C(O)C(O)C2O1 (stereo not shown)
A. 1

Q. State the recorded MIC Staphylococcus aureus (GC 4541) for this entry: CC(C)=CCCC1OCC2OC(OC3C(CO)OC(Oc4ccc(CC5NC(=O)C(C(C)c6ccccc6)NC(=O)CNC(=O)C(CO)NC(=O)C(C(O)C6CNC(=N)N6C6OC(CO)C(O)C(O)C6O)NC(=O)C(C(O)C6CNC(=N)N6)NC5=O)cc4)C(O)C3O)C(O)C(O)C2O1 (stereo not shown)
A. 4

Q. State the recorded MIC Staphylococcus aureus (GC 4541) for this entry: CC(c1ccccc1)C1NC(=O)CNC(=O)C(CO)NC(=O)C(C(O)C2CNC(=N)N2C2OC(CO)C(O)C(O)C2O)NC(=O)C(C(O)C2CNC(=N)N2)NC(=O)C(Cc2ccc(OC3OC(CO)C(OC4OC5COC6(CCCCC6)OC5C(O)C4O)C(O)C3O)cc2)NC1=O (stereo not shown)
A. 1
